- Test system: PCSK9 gene
- ASSAY_NAME: PCSK9 gRNA/SpCas9 editing in primary cynomolgus hepatocytes (Tables 2, 22)
- Format: cell-based, cynomolgus monkey
- RECORDED_CONDITIONS: 500 ng/RNA/mL; SpCas9 mRNA MS002 1:1 by weight
m = 2'-O-methyl; r = 2'-OH (RNA)
List of Cyno Primary Hepatocyte Editing % 500 values.
Please reply with the bare figure in % and do not write the unit itself.

[[record]]
molecule = "GA209: PCSK9 gRNA; protospacer CTTGGCAGTTGAGCACGCGC (SEQ ID NO: 203) (nucleic acid, sugars from the 5' end m3 r94 m3, linkages s3 o93 s3 (s phosphorothioate, o phosphodiester), T or U not given here) guide: CUUGGCAGUUGAGCACGCGCGUUUUAGAGCUAGAAAUAGCAAGUUAAAAUAAGGCUAGUCCGUUAUCAACUUGAAAAAGUGGCACCGAGUCGGUGCUUUU"
reading = 13.96


Now for another entry.
Prompt: Report measured Cyno Primary Hepatocyte Editing % 500; entry is GA198: PCSK9 gRNA; protospacer CCACCGGGAAATCGAGGGCA (SEQ ID NO: 192) (nucleic acid, sugars from the 5' end m3 r94 m3, linkages s3 o93 s3 (s phosphorothioate, o phosphodiester), T or U not given here) guide: CCACCGGGAAAUCGAGGGCAGUUUUAGAGCUAGAAAUAGCAAGUUAAAAUAAGGCUAGUCCGUUAUCAACUUGAAAAAGUGGCACCGAGUCGGUGCUUUU
Completion: 16.15
